Target System: T1, IFF05588
T1 chain: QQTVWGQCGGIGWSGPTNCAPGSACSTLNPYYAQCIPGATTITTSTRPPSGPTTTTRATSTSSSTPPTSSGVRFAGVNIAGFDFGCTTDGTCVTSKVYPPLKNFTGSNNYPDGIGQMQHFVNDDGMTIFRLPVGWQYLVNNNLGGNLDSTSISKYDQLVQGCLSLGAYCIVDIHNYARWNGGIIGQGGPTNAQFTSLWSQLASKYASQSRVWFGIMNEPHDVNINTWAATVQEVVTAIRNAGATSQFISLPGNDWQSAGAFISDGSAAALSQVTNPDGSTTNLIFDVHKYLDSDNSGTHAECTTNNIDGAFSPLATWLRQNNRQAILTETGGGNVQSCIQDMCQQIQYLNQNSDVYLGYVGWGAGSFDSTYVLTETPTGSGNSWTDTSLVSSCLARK
We begin with a simple list: items and their reported Relative late peak area (reverse phase chromatography, 24 h).
Measurement Kind: Relative late peak area (reverse phase chromatography, 24 h)

Protein	Result
IFF21378 (protein) LDKPALTPDLDYLLDGNTANLPQNGGAHWGKWEDGLMPEDCKSIAEGQDLNPADFEVYDVFYDDCQDAWSFCRHKDSPEDLETLVNTFGRVPVRMRSWVRHVLSIPGNNWAFNSNGNIALSGTTTHNLDVCLHETGHSLDLLGAYVDGALSSTQEWEDAYNKDSAVPDNYARTNQVENVAQNTVVGIYDKVVPGGFPGVQSESQKIENQYKLLQDKAGEQILPGGTCDRHLQNSATVSIKSSSKRENKVVKAREAHDSALKGTYTNIVKEFTPFNTKDFHEEH	0.52
IFF21338 (protein) NLNKPVITPNFPGNGLASLGPGLMNNLAPTHSTWDDWGAGWIPSDCKSMVQGAGFSPNDIIPFNIHYDDCAQTWTFCRHKNSPLSEIQILDIFGRLPVRMRQFVRHLVFVPGNKSAGSNGDNVLMVGDVDVTVFAHEIGHSLDSHAFDPSYGVPFSTGNVWVSNYNLDSAVPDPYAQSSQQENFAQQTVVSLYDKVVPGGIGTIQPNWQAIFHQYATLEGYIGNVIIPGGTCTHRLTDSAPVTMSGSKKSRRALGPKPKVSLSPEVKEIEAIPMESSITMTSFDEHGKPNGTYVIHL	0.6
IFF21372 (protein) QNLGKPVLFTDGLSPHVDASFWAHLNPTQSTWDQWGWGWIPQSCFDAANSNNVSPYDFEVFNVHYTDCGTAWVFCRHHSASLSQIDMIDLFGRLPVHERQWIRHVVAVPGGGSAYELNADVVFQGPVGTPSVFQHEVGHAVDFYKNGFQSSGTSQFLNAIQQDSCVPDDYANSNNVEDYTQVGVLSLYEIVNPGGLDPIGANWRCLVNQKNVLDGFQRDNMIPGGVCDRRWADSTIVKMGPAVPRVKRGPVGPIPQPAGLPVPGPSKAGPDVYKNLVFNATEKRNAETRQAAWQKAAKGAEA	0.6
